Parameter Absorption cut-off wavelength: see the listing below.
Experiment: Absorption spectrum in chloroform (UV-visible spectrophotometer)
Type: physicochemical
Settings: chloroform solution 10 mg/L
property.label: Absorption cut-off wavelength (nm)

compound | property.label | unit | value.observed
CCCCN1C(=O)c2cc3nn(-c4cc(C(C)(C)CC(C)(C)C)cc(C(C)(C)c5ccccc5)c4O)nc3cc2C1=O [Carboprotect, reference compound] | Absorption cut-off wavelength | nm | 435
Cc1cc(-n2nc3ccc(Cl)cc3n2)c(O)c(C(C)(C)C)c1 [UV-326, reference compound] | Absorption cut-off wavelength | nm | 410
CCCCCCCCCCCCSc1ccc2nn(-c3cc(C)cc(C(C)(C)C)c3O)nc2c1 | Absorption cut-off wavelength | nm | 416
CCCCCCCCCCCCS(=O)(=O)c1ccc2nn(-c3cc(C)cc(C(C)(C)C)c3O)nc2c1 | Absorption cut-off wavelength | nm | 430
